Tested on: Heliothis virescens
Experiment: Action on Tobacco Budworm (Heliothis virescens)
Format: in vivo
Settings: 800 ppm; egg and larval mortality; 5 days
Property measured: mortality in comparison with untreated controls

>>> print(df.to_string())
                              line_notation     target_or_system     obs_value
0  Cc1ccc(C(C)C)c(N2C(=O)CSC2=NC(=O)Nc2ccc(-n3cc(NC(=O)c4ccc(N(C)C)cc4)c(C)n3)cc2)c1  Heliothis virescens  at least 75%
1  Cc1nn(-c2ccc(NC(=O)NC(=S)Nc3ccccc3C(C)C)cc2)cc1NC(=O)c1ccc(OC(F)(F)F)cc1  Heliothis virescens  at least 75%
2  Cc1ccc(C(C)C)c(N2C(=O)CSC2=NC(=O)Nc2ccc(-n3nc(C)c(NC(=O)c4ccc(Cl)c(Cl)c4)c3C)cc2)c1  Heliothis virescens  at least 75%

* * *

Tested on: Aedes aegypti
Experiment: whole plant or invertebrate
Assay type: in vivo
Settings: 800 ppm; larvae; 2 days
Property measured: mortality in comparison with untreated controls

>>> print(df.to_string())
                              line_notation     obs_value
0  Cc1nn(-c2ccc(NC(=O)N=C3SCC(=O)N3c3cc(C#N)ccc3C(C)C)cc2)cc1NC(=O)c1ccc(OC(F)(F)F)cc1  at least 50%
1  Cc1ccc(C(C)C)c(N2C(=O)CS/C2=N\C(=O)Nc2cc(Cl)c(-n3nc(C)c(NC(=O)c4ccc(OC(F)(F)F)cc4)c3C)cc2C)c1  at least 50%
2  Cc1ccc(C(F)(F)F)c(N2C(=O)CSC2=NC(=O)Nc2ccc(-n3cc(NC(=O)c4ccc(OC(F)(F)F)cc4)c(C)n3)cc2)c1  at least 50%

* * *

System: Anthonomus grandis
Assay: Action on Boll Weevil (Anthonomus grandis)
Format: in vivo
Conditions: 800 ppm; egg and larval mortality; 5 days
Property measured: mortality in comparison with untreated controls

>>> df
                              line_notation     obs_value
0  Cc1ccc(C(C)C)c(N2C(=O)CSC2=NC(=O)Nc2ccc(-n3nc(C)c(NC(=O)c4ccc(Br)c(C#N)c4)c3C)cc2)c1  at least 75%
1  Cc1ccc(C(C)C)c(N2C(=O)CSC2=NC(=O)Nc2ccc(-n3cc(NC(=O)c4ccc(C5(F)COC5)cc4)c(C)n3)cc2)c1  at least 75%
2  Cc1ccc(C(C)C)c(N2C(=O)CSC2=NC(=O)Nc2ccc(-n3cc(NC(=O)c4csc(Cl)n4)c(C)n3)cc2)c1  at least 75%

* * *

Tested on: Anthonomus grandis
Assay: Action on Boll Weevil (Anthonomus grandis)
Type: in vivo
Details: 800 ppm; egg and larval mortality; 5 days
Property measured: mortality in comparison with untreated controls

In [3]: df
Out[3]:
                              line_notation     obs_value
0  Cc1ccc(C(C)C)c(N2C(=O)CSC2=NC(=O)Nc2ccc(-n3nc(C)c(NC(=O)c4ccc(C(Cl)Cl)cc4)c3C)cc2)c1  at least 75%
1  Cc1ccc(C(C)C)c(N2C(=O)CS/C2=N\C(=O)Nc2ccc(-n3nc(C)c(NC(=O)c4ccc(OC(F)(F)F)cc4)c3C)cc2OC(F)F)c1  at least 75%
2  Cc1ccc(C(C)C)c(N2C(=O)CSC2=NC(=O)Nc2ccc(-n3cc(NC(=O)c4ccc(C(F)F)cc4)c(C)n3)cc2)c1  at least 75%

* * *

Test system: Plutella xylostella
Experiment: Action on Diamond Back Moth (Plutella xylostella), cabbage leaf dip, 3rd instar larvae
Assay type: in vivo
Conditions: 300 ppm; 3rd instar larvae; 72 hours after treatment
Property measured: mortality in comparison with untreated controls

In [3]: df
Out[3]:
                              line_notation     target_or_system     obs_value
0  Cc1nn(-c2ccc(NC(=O)/N=C3\SCC(=O)N3c3cc(N(C)C)ccc3C(C)C)cc2)c(C)c1NC(=O)c1ccc(OC(F)(F)F)cc1  Plutella xylostella  at least 75%
1  Cc1ccc(C(C)C)c(N2C(=O)CSC2=NC(=O)Nc2ccc(-n3cc(NC(=O)c4ccc(N(C)C)cc4)c(C)n3)cc2)c1  Plutella xylostella  at least 75%
2  Cc1ccc(C(C)C)c(N2C(=O)CS/C2=N\C(=O)Nc2ccc(-n3nc(C)c(NC(=O)c4ccc(OC(F)(F)F)cc4)c3C)nc2)c1  Plutella xylostella  at least 75%

* * *

Tested on: Plutella xylostella
Test: Action on Diamond Back Moth (Plutella xylostella), cabbage leaf dip, 3rd instar larvae
Type: in vivo
Settings: 300 ppm; 3rd instar larvae; 72 hours after treatment
Property measured: mortality in comparison with untreated controls

Solved cases below.
In [3]: df
Out[3]:
                                   molecule     obs_value
0  Cc1nn(-c2ccc(NC(=O)N=C3SCC(=O)N3c3cc(C#N)ccc3C(C)C)cc2)cc1NC(=O)c1ccc(OC(F)(F)F)cc1 [Example C-10]  at least 75%
1  Cc1nn(-c2ccc(NC(=O)N=C3SCC(=O)N3c3ccccc3C(C)C)cc2)cc1NC(=O)c1ccc(OC(F)(F)F)cc1 [Example C-8]  at least 75%
2  Cc1ccc(C(C)C)c(N2C(=O)CSC2=NC(=O)Nc2ccc(-n3cc(NC(=O)c4ccc(S(C)(=O)=O)cc4F)c(C)n3)cc2)c1 [Example C-91]  at least 75%
3  Cc1ccc(C(C)C)c(N2C(=O)CS/C2=N\C(=O)Nc2ccc(-n3nc(C)c(NC(=O)c4ccc(OC(F)(F)F)c(F)c4)c3C)c(F)c2)c1 [Example C-21]  at least 75%
4  Cc1ccc(C(F)(F)F)c(N2C(=O)CSC2=NC(=O)Nc2ccc(-n3cc(N(C)C(=O)c4ccc(OC(F)(F)F)cc4)c(C)n3)cc2)c1 [Example C-11]  at least 75%

Request the reported mortality in comparison with untreated controls associated with Cc1ccc(C(C)C)c(N2C(=O)CSC2=NC(=O)Nc2ccc(-n3cc(NC(=O)c4ccc(C5CC5(F)F)cc4)c(C)n3)cc2)c1 (racemic) [Example C-65]
at least 75%

* * *

Tested on: Anthonomus grandis
Assay: Action on Boll Weevil (Anthonomus grandis)
Format: in vivo
Conditions: 800 ppm; egg and larval mortality; 5 days
Property measured: mortality in comparison with untreated controls

>>> df
                                   compound     obs_value
0  Cc1ccc(C(C)C)c(N2C(=O)CSC2=NC(=O)Nc2ccc(-n3nc(C)c(NC(=O)c4ccc(Cl)cc4)c3C)cc2)c1 [Example C-111]  at least 75%
1  Cc1ccc(C(C)C)c(N2C(=O)CSC2=NC(=O)Nc2ccc(-n3nc(C)c(NC(=O)c4ccc(Cl)c(F)c4)c3C)cc2)c1 [Example C-109]  at least 75%
2  Cc1ccc(C(C)C)c(N/C(=N/C(=O)Nc2ccc(-n3nc(C)c(NC(=O)c4ccc(OC(F)(F)F)cc4)c3C)cc2Cl)SCOC(=O)C(C)C)c1 [Example C-130]  at least 75%

* * *

Test system: Heliothis virescens
Test: Action on Tobacco Budworm (Heliothis virescens)
Type: in vivo
Details: 800 ppm; egg and larval mortality; 5 days
Property measured: mortality in comparison with untreated controls

                                   molecule     target_or_system     obs_value
0  Cc1ccc(C(C)C)c(N2C(=O)CSC2=NC(=O)Nc2ccc(-n3cc(NC(=O)c4ccc(C5COC5)cc4)c(C)n3)cc2)c1 [Example C-52]  Heliothis virescens  at least 75%
1  Cc1ccc(C(C)C)c(N2C(=O)CSC2=NC(=O)Nc2ccc(-n3nc(C)c(NC(=O)c4ccc(F)c(F)c4)c3C)cc2)c1 [Example C-114]  Heliothis virescens  at least 75%
2  Cc1ccc(C(C)C)c(N2C(=O)CSC2=NC(=O)Nc2ccc(-n3cc(NC(=O)c4ccc(I)cc4)c(C)n3)cc2)c1 [Example C-71]  Heliothis virescens  at least 75%

* * *

Tested on: Heliothis virescens
Assay: Action on Tobacco Budworm (Heliothis virescens)
Format: in vivo
Details: 800 ppm; egg and larval mortality; 5 days
Property measured: mortality in comparison with untreated controls

Solved cases below.
                                   compound     obs_value
0  Cc1ccc(C(C)C)c(N2C(=O)CS/C2=N\C(=O)Nc2ccc(-n3nc(C)c(NC(=O)c4ccc(OC(F)(F)F)cc4)c3C)cc2OC(F)F)c1 [Example C-20]  at least 75%
1  Cc1ccc(C(C)C)c(N2C(=O)CS/C2=N\C(=O)Nc2ccc(-n3cc(NC(=O)c4ccc(C(C)(F)F)cc4)c(C)n3)cc2)c1 [Example C-36]  at least 75%
2  Cc1ccc(C(C)C)c(N2C(=O)CSC2=NC(=O)Nc2ccc(-n3cc(NC(=O)c4ccc(C(F)F)cc4)c(C)n3)cc2)c1 [Example C-82]  at least 75%
3  Cc1ccc(C(C)C)c(N2C(=O)CSC2=NC(=O)Nc2ccc(-n3nc(C)c(NC(=O)c4ccc(Cl)c(F)c4)c3C)cc2)c1 [Example C-109]  at least 75%
4  Cc1ccc(C(C)C)c(N2C(=O)CSC2=NC(=O)Nc2ccc(-n3cc(NC(=O)c4ccncc4)c(C)n3)cc2)c1 [Example C-59]  at least 75%

Request the reported mortality in comparison with untreated controls associated with Cc1ccc(C(C)C)c(N2C(=O)CSC2=NC(=O)Nc2ccc(-n3cc(NC(=O)c4ccc(OC(C)C)cc4)c(C)n3)cc2)c1 [Example C-48]
at least 75%

Request the reported mortality in comparison with untreated controls associated with Cc1nn(-c2ccc(NC(=O)/N=C3\SCC(=O)N3c3cc(N(C)C)ccc3C(C)C)cc2)c(C)c1NC(=O)c1ccc(OC(F)(F)F)cc1 [Example C-17]
at least 75%

Request the reported mortality in comparison with untreated controls associated with Cc1ccc(C(C)C)c(N2C(=O)CS/C2=N\C(=O)Nc2ccc(-n3nc(C)c(NC(=O)c4ccc(Cl)cc4F)c3C)cc2Cl)c1 [Example C-106]
at least 75%

Request the reported mortality in comparison with untreated controls associated with Cc1ccc(C(C)C)c(N2C(=O)CS/C2=N\C(=O)Nc2ccc(-n3nc(C)c(NC(=O)c4ccc(Cl)c(Cl)c4)c3C)cc2Cl)c1 [Example C-102]
at least 75%

Request the reported mortality in comparison with untreated controls associated with Cc1ccc(C(C)C)c(N2C(=O)CS/C2=N\C(=O)Nc2c(C)cc(-n3nc(C)c(NC(=O)c4ccc(OC(F)(F)F)cc4)c3C)cc2Cl)c1 [Example C-105]
at least 75%

Request the reported mortality in comparison with untreated controls associated with Cc1ccc(C(C)C)c(N2C(=O)CS/C2=N\C(=O)Nc2ccc(-n3cc(NC(=O)c4ccc(Cl)cc4)c(C)n3)cc2)c1 [Example C-29]
at least 75%

Request the reported mortality in comparison with untreated controls associated with Cc1ccc(C(C)C)c(N2C(=O)CSC2=NC(=O)Nc2ccc(-n3cc(NC(=O)c4ccc(C5CC5(Cl)Cl)cc4)c(C)n3)cc2)c1 (racemic) [Example C-89]
at least 75%
